# measurementNotes: physchem
# measurementParameters: pH 6.8, aqueous buffer, kinetic from dmso stock, Solubility (pH 6.8)
Catalogue of molecules with associated solubility at 24 h
# unit: µg/mL | format: bare number

In [3]: df
Out[3]:
                                   molecule  reportedmeasurement
0  CCO[C@@H]1CN(c2nc(-c3cccc(C)c3OCc3cc(C)c4c(c3F)CCN(C3CCOCC3)C4)cs2)CC[C@@H]1C(=O)O                 92.2
1  Cc1cccc(-c2cccc(N3CC[C@@]4(C(=O)O)C[C@H]4C3)n2)c1OCc1ccc2c(c1)CCN(C1CCOCC1)C2                   71
2  Cc1ccc(OCc2cc(C)c3c(c2)CCN(C2CCOCC2)C3)c(-c2csc(N3CC[C@@]4(C(=O)O)C[C@H]4C3)n2)c1                  3.3
3  COC[C@H]1N(c2cccc(-c3cccc(C)c3OCc3cc(F)c4c(c3)CCN(C3CCOCC3)C4)n2)C[C@@H]2C[C@@]21C(=O)O                  134
4  COC[C@H]1N(c2cccc(-c3cccc(C)c3OCc3ccc4c(c3C)CCN(C3COC3)C4)n2)C[C@@H]2C[C@@]21C(=O)O                   84
5  COC[C@H]1N(c2cccc(-c3cccc(C)c3OCc3cc4c(c(OC)c3)CN(C3COC3)CC4)n2)C[C@@H]2C[C@@]21C(=O)O                   80
6  COC[C@H]1N(c2cccc(-c3cccc(F)c3OCc3ccc4c(c3C)CCN(C3CCOCC3)CC4)n2)C[C@@H]2C[C@@]21C(=O)O                 72.7
7  Cc1ccc(OCc2ccc3c(c2C)CCN(C2CCOCC2)CC3)c(-c2csc(N3CC[C@@]4(C(=O)O)C[C@H]4C3)n2)c1                  2.9
8  COCc1cc(COc2c(C)cccc2-c2cccc(N3CC[C@H](C(=O)O)[C@H](OC)C3)n2)cc2c1CN(C1COC1)CC2                 97.6
9  Cc1cccc(-c2csc(N3C[C@@H]4C[C@]4(C(=O)O)C3)n2)c1OCc1ccc2c(c1)CCN(C1CCOCC1)C2                   56

Please report the measured solubility at 24 h for CO[C@H]1CN(c2nc(-c3cccc(Cl)c3OCc3ccc4c(c3)CCN(C3CCOCC3)C[C@H]4C)cs2)CC[C@H]1C(=O)O 66.7

Please report the measured solubility at 24 h for Cc1c(COc2ccccc2-c2cccc(N3CC[C@@]4(C(=O)O)C[C@H]4C3)n2)ccc2c1CCN(CC1COCCO1)C2 (stereo partly shown) 79

Please report the measured solubility at 24 h for COc1cc(COc2c(Cl)cccc2-c2csc(N3CC[C@H](C(=O)O)[C@H](OC)C3)n2)cc2c1CN(C1CCOCC1)CC2 46.7

Values were extracted from patent US9353090B2.
